Values compiled from PubChem BioAssay (NCATS).

Test: Quantitative highthroughput screen to assess conditional lethalithy of SEM cells grown in RPMI1640 with dialyzed fetal bovine serum (RPMI+ds) (AID 1963884); also: nearly all actives have a fitted effect of over 35% in size
Conditions: SEM B-ALL cells, RPMI+dialyzed FBS, CellTiter-Glo viability, 48 h; series mostly up to 45.8 µM
Records with an inconclusive call do not appear. Active and inactive are the calls of the source. Calls follow the shape of the dose curve; as a rule, active = well fitted cell-killing curve with a large enough effect; inconclusive = small, poorly fitted or top-dose-only effect, or effect the other way; inactive = no such curve, though single readings can be large or run the other way.
metric_name: outcome

Sample answers from the record:
* OC[C@H](Cc1ccccc1)Nc1nc(Oc2ccc3c(c2)CCC3)nc2c1ncn2Cc1ccc(-c2ccccc2)cc1 | inactive
* CCCCS(=N)(=O)CCC(N)C(=O)O (stereo unspecified) | inactive
* O=C1NC(=O)C(=Cc2ccc3c(c2)OC(F)(F)O3)S1 | inactive
* CNC1CCCN(c2c(F)cc3c(=O)c(C(=O)O)cn(C4CC4)c3c2OC)C1 (stereo unspecified) | inactive

Provide the reported outcome of each entry below, same order.
1. CNC(=O)c1ccc(-c2cnc3ncc(Cc4ccc5ncccc5c4)n3n2)cc1F
2. CN(Cc1cc(Br)cc(Br)c1N)C1CCCCC1

Result string:
inactive
inactive
